The reported numbers originate from paper PMC12195967.

# System: EB–DNA adduct (CT DNA)
# test_method_notes: EB-displacement (EB–DNA fluorescence quenching)
# Type: binding, calf
# experimental_setup: λexcitation 540 nm, emission 594 nm; buffer pH 7
# Method: For the current study, the EB–DNA adduct was prepared in situ after 1-h pretreatment of EB (40 μΜ) and CT DNA (40 μΜ) in buffer solution (sodium chloride 150 mM and sodium citrate 15 mM at pH = 7). Furthermore, the Stern–Volmer constants (KSV) that represent the ability of the compounds to induce quenching were calculated with the Stern–Volmer equation (Equation (S2)) and the corresponding Stern–Volmer plots […] vs. [Q] (Figure S8). […]
For each record, write down the corresponding percentage of EB–DNA fluorescence emission quenching (ΔI/I0, %).
One number for each entry, in %.

| compound | tested_target | units_symbol | assay_value |
| --- | --- | --- | --- |
| C[O-].C[O-].Cc1ccc2ccc3ccc(C)nc3c2n1.Cc1ccc2ccc3ccc(C)nc3c2n1.O=C([O-])c1ccccc1Nc1ccc([N+](=O)[O-])cc1.O=C([O-])c1ccccc1Nc1ccc([N+](=O)[O-])cc1.[Co+2].[Co+2] [Complex 4, [Co2(4′–NO2–fen)2(μ–CH3O)2(neoc)2]] | EB–DNA adduct (CT DNA) | % | 74.0 |

Please give percentage of EB–DNA fluorescence emission quenching (ΔI/I0, %), item by item, for the list that follows.
1. O=C([O-])c1ccccc1Nc1ccc([N+](=O)[O-])cc1.O=C([O-])c1ccccc1Nc1ccc([N+](=O)[O-])cc1.[Co+2].c1ccc(Nc2ccccn2)nc1 [Complex 2, [Co(4′–NO2–fen)2(bipyam)]]
2. O=C(O)c1ccccc1Nc1ccc([N+](=O)[O-])cc1 [4′–NO2–fenH, 4′–nitrofenamic acid]
3. CO.CO.CO.CO.O=C([O-])c1ccccc1Nc1ccc([N+](=O)[O-])cc1.O=C([O-])c1ccccc1Nc1ccc([N+](=O)[O-])cc1.[Co+2] [Complex 1, [Co(4′–NO2–fen)2(MeOH)4]]

*A*
[67.3, 47.1, 64.6]

*Q* Please give the documented percentage of EB–DNA fluorescence emission quenching (ΔI/I0, %) of O=C([O-])c1ccccc1Nc1ccc([N+](=O)[O-])cc1.O=C([O-])c1ccccc1Nc1ccc([N+](=O)[O-])cc1.[Co+2].c1cnc2c(c1)ccc1cccnc12 [Complex 3, [Co(4′–NO2–fen)2(phen)]]
*A* 73.7
